Cited source: ChEMBL document CHEMBL1142271

- protocol.notes: Half life in rat
- Format: ADME, organism-based
- reported.conditions: in vivo

{"columns": ["compound", "half-life"],
 "data": [
  ["Cc1nc2cc3c(cc2o1)CCN(CCCSc1nnc(-c2ccc(C(F)(F)F)cc2)n1C)CC3", "1.5 h"],
  ["Cc1ccc2c(-c3nnc(SCCCN4CCc5cc6nc(C(F)(F)F)oc6cc5CC4)n3C)cccc2n1", "3.3 h"],
  ["CCc1nc2cc3c(cc2o1)CCN(CCCSc1nnc(-c2ccc(C(F)(F)F)cc2)n1C)CC3", "1.1 h"]
]}
